meta.source: patent US10065941B2

# tested-target: human P2X3 receptor (Homo sapiens (Human), UniProt P56373)
# Sequence (P56373 whole entry): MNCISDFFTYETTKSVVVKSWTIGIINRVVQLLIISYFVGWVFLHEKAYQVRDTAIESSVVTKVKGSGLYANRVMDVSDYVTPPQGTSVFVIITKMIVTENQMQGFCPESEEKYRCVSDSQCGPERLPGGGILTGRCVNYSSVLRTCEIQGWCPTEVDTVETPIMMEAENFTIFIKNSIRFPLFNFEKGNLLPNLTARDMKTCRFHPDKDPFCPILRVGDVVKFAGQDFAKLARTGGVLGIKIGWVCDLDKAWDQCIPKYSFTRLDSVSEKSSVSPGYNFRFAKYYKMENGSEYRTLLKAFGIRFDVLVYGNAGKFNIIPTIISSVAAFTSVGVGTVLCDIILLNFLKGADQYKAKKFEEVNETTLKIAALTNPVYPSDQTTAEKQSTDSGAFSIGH
# assay: Evaluation of human P2X3 receptor inhibitory activity (Test Example 1)
# conditions: C6BU-1 cell transfected with human P2X3 receptor gene, FLIPR 384
The reader will find reported IC50 values listed item by item below.
assay-readout: IC50 (nM)

>>> observed_measurement("COC(=O)[C@@H](C)Cn1c(=O)[nH]/c(=N\\c2ccc(Oc3ccccn3)c(C)c2)n(Cc2ccc(Cl)cc2)c1=O")
11
>>> observed_measurement("COC(=O)[C@@H](C)Cn1c(=O)[nH]/c(=N\\c2ccc(Oc3ccc(CF)nc3)cc2)n(Cc2ccc(Cl)cc2)c1=O")
6
>>> observed_measurement("C[C@@H](Cn1c(=O)[nH]/c(=N\\c2ccc(Oc3cccc(F)n3)cc2)n(Cc2ccc(F)cc2F)c1=O)C(=O)O")
14
>>> observed_measurement("Cc1ccc(Cn2c(=O)n(C[C@H](C)C(=O)O)c(=O)[nH]/c2=N\\c2ccc(Oc3cccc(F)n3)cc2)cc1")
5
>>> observed_measurement("O=C(O)Cn1c(=O)[nH]/c(=N\\c2ccc(Oc3ccc(F)cn3)cc2)n(Cc2ccc(Cl)cc2)c1=O")
428
>>> observed_measurement("COC(=O)[C@@H](C)Cn1c(=O)[nH]/c(=N\\c2ccc(Oc3ccc(CF)cn3)cc2)n(Cc2ccc(Cl)cc2)c1=O")
5

---

The reader will find reported pIC50 values listed item by item below.
# tested-target: human P2X3 receptor (Homo sapiens (Human), UniProt P56373)
# assay: Evaluation of human P2X3 receptor inhibitory activity (Test Example 1)
# Assay type: cell-based
# conditions: C6BU-1 cell transfected with human P2X3 receptor gene, FLIPR 384
pIC50: −log10 of the molar value.
assay-readout: pIC50

>>> observed_measurement("Cc1ccc(Cn2c(=O)n(C[C@H](C)C(=O)O)c(=O)[nH]/c2=N\\c2ccc(Oc3ncc(C)s3)cc2)cc1")
8.22
>>> observed_measurement("Cc1ccc(Cn2c(=O)n(CCC(=O)O)c(=O)[nH]/c2=N\\c2ccc(Oc3ccccn3)c(Cl)c2)cc1")
8.05
>>> observed_measurement("COc1nc(=O)n(Cc2ccc(Cl)cc2)/c(=N/c2ccc(Oc3cccc(C#N)n3)cc2)[nH]1")
7.21
>>> observed_measurement("CCOC(=O)Cn1c(=O)[nH]/c(=N\\c2ccc(Oc3ccc(F)cn3)cc2)n(Cc2ccc(Cl)cc2)c1=O")
8.40
>>> observed_measurement("COC(=O)C(C)(C)Cn1c(=O)[nH]/c(=N\\c2ccc(Oc3ccc(F)cn3)cc2)n(Cc2ccc(C)cc2)c1=O")
8.22
>>> observed_measurement("Cc1ccc(Cn2c(=O)n(C[C@H](C)C(=O)O)c(=O)[nH]/c2=N\\c2ccc(Oc3ncccc3F)cc2)cc1")
8.15
>>> observed_measurement("COC(=O)[C@@H](C)Cn1c(=O)[nH]/c(=N\\c2ccc(Oc3ccccn3)c(Cl)c2)n(Cc2ccc(Cl)cc2)c1=O")
7.85
>>> observed_measurement("O=C(O)Cn1c(=O)[nH]/c(=N\\c2ccc(Oc3ccccn3)cc2)n(Cc2ccc(Cl)cc2)c1=O")
6.40
>>> observed_measurement("COC(=O)[C@@H](C)Cn1c(=O)[nH]/c(=N\\c2ccc(Oc3ncns3)cc2)n(Cc2ccc(Cl)cc2)c1=O")
8.30
>>> observed_measurement("Cc1ccc(Cn2c(=O)n(CC(C)(C)C(=O)O)c(=O)[nH]/c2=N\\c2ccc(Oc3ccc(Cl)cn3)cc2)cc1")
8.30
>>> observed_measurement("COC(=O)[C@@H](C)Cn1c(=O)[nH]/c(=N\\c2ccc(Oc3cc(OC)ccn3)cc2)n(Cc2ccc(Cl)cc2)c1=O")
8.00
>>> observed_measurement("CC(C)(Cn1c(=O)[nH]/c(=N\\c2ccc(Oc3cnccn3)cc2)n(Cc2ccc(Cl)cc2)c1=O)C(=O)O")
7.89
>>> observed_measurement("COC(=O)C(C)(C)Cn1c(=O)[nH]/c(=N\\c2ccc(N3CCCCC3)c(F)c2)n(Cc2ccc(Cl)cc2)c1=O")
7.33
>>> observed_measurement("Cc1ccnc(Oc2ccc(/N=c3\\[nH]c(=O)n(C[C@H](C)C(=O)O)c(=O)n3Cc3ccc(Cl)cc3)cc2)c1")
8.00
